All values here come from PubChem BioAssay (NCI).

- System: ACHN renal
- run.description: NCI-60 one-dose screen, 48 h
- condition.summary: 10 µM unless noted
Compounds without any hit were thinned out: in the full panel of roughly 83,000, 20% have a hit. The source made the active and inactive calls. Rule for the calls: active = growth percent below 10; inactive = the rest.
One label from this list, please: active, inactive

>>> label("Cn1ccnc1C(=O)/C=C/c1ccc(C(=O)Nc2nc3ccccc3[nH]2)cc1")
"inactive"
>>> label("C[C@]12CCC(=O)C=C1CCC1C2[C@@H](O)C[C@@]2(C)C1CC[C@]2(O)C(=O)COC(=O)CCC(=O)O (some centres undefined)")
"inactive"
>>> label("COc1ccc2nc(NC(=O)CN3CCn4c(nnc4C(F)(F)F)C3)sc2c1")
"inactive"
>>> label("COc1ccc(NC(=O)c2ccc(-c3ccccc3)cc2)c(C(N)=O)c1")
"inactive"
>>> label("CC(C)OP(=O)(OC(C)C)c1ncc(-c2ccc(C(F)(F)F)cc2)c(NC2CCCCCC2)n1")
"active"

[in] Hi, do you know how Cc1cc(C)nc(NS(=O)(=O)c2ccc(Nc3nc4nc(SCc5ccccc5)nc(-c5ccc(O)cc5)c4c(=O)[nH]3)cc2)n1 came out in this test?
[out] inactive

[in] Hi, do you know how COc1ccc2c(c1)[n+](=O)c(C(=O)/C=C/c1cc(OC)c(OC)c(OC)c1)c(C)n2[O-] came out in this test?
[out] inactive

[in] Hi, do you know how COc1ccc2cc(C3=CC(=O)CCC3)ccc2c1 came out in this test?
[out] inactive

[in] Hi, do you know how CCN(CC)CCSc1ncnc2c1cnn2-c1ccc(S(N)(=O)=O)cc1 came out in this test?
[out] inactive

----------
Catalogue of compounds with associated growth
- Test system: OVCAR-3 ovarian
- run.description: NCI-60 one-dose screen, 48 h (100 = growth as untreated, 0 = no growth, -100 = all killed)
- condition.summary: 10 µM unless noted
This is part of a sample that, as a whole, favours compounds with a hit. Of some 83,000 tested, about 20% had one in any assay.
Numeric only. Scale: %

>>> value_observed("NS(=O)(=O)N(c1cc(C(F)(F)F)cc(C(F)(F)F)c1)C1CCN(Cc2ccc(C(F)(F)F)cc2)CC1")
15
>>> value_observed("C=CCNC(=O)/C(=C/c1cccc([N+](=O)[O-])c1)NC(=O)c1ccccc1")
108
>>> value_observed("CCSc1nc(Nc2ccc(S(=O)(=O)Nc3ccon3)cc2)c(C#N)c(-c2cccc(Br)c2)n1")
117
>>> value_observed("O=C(/C=C/c1ccc(C(F)(F)F)cc1)c1ccc(Nc2nc(NCCO)nc(NCCO)n2)cc1")
25.8

Please examine the following record next.
[in] Which measured growth value corresponds to O=C1NCCc2c1noc2-c1ccccc1 ?
[out] 113

----------
- Test system: SW-620 colon
- run.description: NCI-60 one-dose screen, 48 h (100 = growth as untreated, 0 = no growth, -100 = all killed)
- condition.summary: 10 µM unless noted
This is part of a sample that, as a whole, favours compounds with a hit. Of some 83,000 tested, about 20% had one in any assay.
Define the label as Met when growth is strictly less than 40% and as Not met in all remaining cases.

[in] Criterion: growth strictly below 40%. Is it met by CC(=O)[C@H]1CC[C@H]2[C@@H]3C[C@H](C)C4=CC(=O)CC[C@]4(C)[C@H]3C(=O)C[C@]12C ?
[out] Not met

[in] Criterion: growth strictly below 40%. Is it met by CCCn1c(N)c(C(=O)CNc2ccc(I)cc2)c(=O)[nH]c1=O ?
[out] Met

[in] Criterion: growth strictly below 40%. Is it met by COc1ccc(-c2cc(-c3nnc(SCC(=O)Nc4ccc(C(C)=O)cc4)n3-c3ccccc3)c3ccccc3n2)cc1OC ?
[out] Not met

----------
- Test system: SF-539 CNS
- run.description: NCI-60 one-dose screen, 48 h (100 = growth as untreated, 0 = no growth, -100 = all killed)
- condition.summary: 10 µM unless noted
About 83,000 compounds went through this panel and 20% of them were active in at least one assay; those are over-represented in the sample as a whole.
Outcome: MET for growth of at least -10%; NOT MET for anything lower.

>>> label("Cc1ccc(/C=C(/C#N)n2nnc3ncccc32)cc1")
"NOT MET"
>>> label("O=C(c1ccccc1)c1ccc(Oc2ccc([N+](=O)[O-])cc2[N+](=O)[O-])cc1")
"MET"

[in] State whether the measured growth reaches -10%, counting equality as reaching it, for CCC(=O)Nc1cc2c(cc1Cl)-c1ccccc1C2
[out] MET

[in] State whether the measured growth reaches -10%, counting equality as reaching it, for Cc1c2oc3c(C)ccc(C(=O)OC(C)C4NC(=O)C(C(C)C)N(C)C(=O)CN(C)C(=O)C5CCCN5C(=O)C(C(C)C)NC4=O)c3nc-2c(C(=O)OC(C)C2NC(=O)C(C(C)C)N(C)C(=O)CN(C)C(=O)C3CCCN3C(=O)C(C(C)C)NC2=O)c(N)c1=O (stereo not given)
[out] NOT MET

[in] State whether the measured growth reaches -10%, counting equality as reaching it, for COc1cccc(-c2nc3cc(NC(=O)c4ccc(Cl)c(C#N)c4)ccc3o2)c1
[out] NOT MET

----------
- Test system: M14 melanoma
- run.description: NCI-60 one-dose screen, 48 h
- condition.summary: 10 µM unless noted
The panel holds about 83,000 compounds, 20% with a hit somewhere; the sample as a whole holds those more often. Active and inactive are the calls of the source. How the source made its calls: active means growth percent below 10; inactive means the rest.
One label from this list, please: active, inactive

# example entries with known answers
>>> label("O=C1/C(=C\\c2coc3ccccc3c2=O)c2ccccc2N1c1c(Cl)cccc1Cl")
"inactive"
>>> label("O=C(NC1CCS(=O)(=O)C1)c1ccc(C(=O)c2ccccc2)cc1 (stereo not given)")
"inactive"
>>> label("COc1cc(NC(=O)NCc2ccco2)ccc1-c1ccc(NC(=O)NCc2ccco2)cc1OC")
"inactive"

[in] Hi, do you know how Cc1onc(-c2ccccc2Cl)c1C(=O)N[C@@H]1C(=O)N2[C@@H]1SC(C)(C)[C@@H]2C(=O)O came out in this test?
[out] inactive

[in] Hi, do you know how CC(=O)c1ccccc1NC(=O)C(C)(c1ccccc1)c1ccccc1 came out in this test?
[out] inactive

[in] Hi, do you know how Oc1c(N=Nc2nn[nH]n2)ccc2ccccc12 came out in this test?
[out] inactive

----------
- Tested on: SR leukemia
- run.description: NCI-60 one-dose screen, 48 h
- condition.summary: 10 µM unless noted
The panel holds about 83,000 compounds, 20% with a hit somewhere; the sample as a whole holds those more often. Calls of active or inactive are those of the source. How the source made its calls: active means growth percent below 10; inactive means the rest.
One label from this list, please: active, inactive

# example entries with known answers
>>> label("Nc1nc2c(nnn2Cc2ccc(Cl)c(Cl)c2)c(=O)[nH]1")
"inactive"
>>> label("O=C(/C=C/c1cccc(Nc2ccnc3cc(Cl)ccc23)c1)c1ccc(Cl)cc1")
"active"
>>> label("COc1c(O)cc2c(c1CC=C(C)C)OC(=O)c1c(cc(O)c(CC=C(C)C)c1O)O2")
"active"

[in] Hi, do you know how CCCCCc1c(C)[nH]c(/C=C2\N=C(c3ccc[nH]3)C=C2Oc2ccc(Cl)cc2)c1C came out in this test?
[out] active

[in] Hi, do you know how O=C1C=CC(=O)N1c1ccccn1 came out in this test?
[out] inactive

[in] Hi, do you know how O=C(c1ccc(Cl)cc1)c1ccc(Cl)cc1 came out in this test?
[out] inactive

[in] Hi, do you know how COc1ccc(C(=O)/C=C/c2cccc(Nc3ccnc4cc(Cl)ccc34)c2)cc1 came out in this test?
[out] active

[in] Hi, do you know how Cc1cc(Cl)ccc1Nc1nc(C(F)(F)F)ccc1C(=O)N/N=C/c1ccc(Cl)cc1 came out in this test?
[out] active

[in] Hi, do you know how Cc1nn2c(/C=C3/C(=O)Nc4cc(Cl)ccc43)c(-c3ccccc3)nc2s1 came out in this test?
[out] inactive

[in] Hi, do you know how O=C1Nc2ccc(C(=O)O)c(O)c2C1=O came out in this test?
[out] inactive

[in] Hi, do you know how O=C(N/N=C/c1ccc(Cl)cc1Cl)c1ccccc1Nc1cccc(C(F)(F)F)c1 came out in this test?
[out] inactive

----------
- Tested on: TK-10 renal
- run.description: NCI-60 one-dose screen, 48 h (100 = growth as untreated, 0 = no growth, -100 = all killed)
- condition.summary: 10 µM unless noted
About 83,000 compounds went through this panel and 20% of them were active in at least one assay; those are over-represented in the sample as a whole. Calls of active or inactive are those of the source. Rule for the calls: active = growth percent below 10; inactive = the rest.
Catalogue of compounds with associated growth

>>> value_observed("COc1cc2c(cc1OC)C(CC1(O)CCCCC1)N(S(=O)(=O)c1ccc(C)cc1)CC2 (stereo not given)")
"40.9% [100 µM] (inactive)"
>>> value_observed("COc1cc(/C=C/C(=O)CC(=O)/C=C/c2ccc(OC(=O)CCNC34CC5CC(CC(C5)C3)C4)c(OC)c2)ccc1OC(=O)CCNC12CC3CC(CC(C3)C1)C2")
"70% (inactive)"
>>> value_observed("O=C1NC(=O)/C(=C\\c2ccco2)S1")
"102% (inactive)"
>>> value_observed("O=C(O)c1ccc(CNS(=O)(=O)c2ccc3ccccc3c2)cc1")
"109% (inactive)"
>>> value_observed("C(#Cc1ccccc1C#Cc1ccccn1)c1ccc(OCCCCCCOc2ccc(C#Cc3ccccc3C#Cc3ccccn3)cc2)cc1")
"76.2% (inactive)"

Please examine the following record next.
[in] Which measured growth value corresponds to CCCn1c(N)c(C(=O)CNc2ccc(I)cc2)c(=O)[nH]c1=O ?
[out] 59% (inactive)
